Data provenance: the Immune Epitope Database (IEDB)

- system.under.test: HLA-A*02:01
- method.summary: IEDB peptide-MHC binding, purified MHC/competitive/radioactivity; bounds were set here for any values at or beyond the usual limits of such assays
- reported.conditions: source organism: Vaccinia virus WR
reported.endpoint: IC50

INSERT INTO results (ordered_residues, result) VALUES
  ('LVSDCASTI', '2740 nM'),
  ('KLTDKKTFI', '1120 nM'),
  ('YLSDSDNIKI', '53 nM'),
  ('VMNNLSELT', '2080 nM'),
  ('NTIDKSSPL', '972 nM'),
  ('LMMSCISCI', '12 nM'),
  ('LVASLNPNM', '387 nM'),
  ('LAALFMYYA', '52 nM'),
  ('EIIPSSIPV', '4650 nM'),
  ('NMQTVKLFV', '12 nM'),
  ('ELLEMKYAL', '281 nM'),
  ('FLIVRLNQCM', '34 nM'),
  ('IVISPMGKL', '896 nM'),
  ('LMEVFPQLDL', '244 nM'),
  ('SQMTSTFIM', '85 nM'),
  ('KANCTAESST', '2760 nM'),
  ('RLESYHRFDM', '3330 nM'),
  ('LLGLILFVL', '724 nM'),
  ('NIVTFINDYA', '827 nM'),
  ('YLTVSFIDET', '4780 nM'),
  ('TAIFTDASTV', '4460 nM'),
  ('KVEKYLPEV', '17 nM'),
  ('IVYGRSNAIL', '724 nM'),
  ('RAGYSIVEL', '5000 nM'),
  ('YLPEVISTIA', '29 nM'),
  ('ILGIIITVGM', '1270 nM'),
  ('CMSANEAAI', '16 nM'),
  ('IALCKVTVPT', '2120 nM'),
  ('GIAIFNNRNL', '1330 nM'),
  ('LVQYRILPMI', '2540 nM'),
  ('GLYCYFTHL', '5.4 nM'),
  ('GLDVKNVQLV', '313 nM'),
  ('DINVIGLIVI', '1360 nM'),
  ('WIKDIMTST', '948 nM'),
  ('VLPAVVYST', '113 nM'),
  ('CTINVNSLAL', '1040 nM'),
  ('MAAAKTPVI', '1370 nM'),
  ('NINIEVKLFI', '1170 nM'),
  ('TIDKSSPLYI', '1900 nM'),
  ('TIATYIDAL', '610 nM'),
  ('MIYDLNAVTT', '278 nM'),
  ('MQRIISLSV', '454 nM'),
  ('VQTIVFIWFI', '952 nM'),
  ('ILQISQCQRI', '2600 nM'),
  ('ALLVATDPDA', '606 nM'),
  ('ILYLYETYHL', '9 nM'),
  ('IQAKTKNFTI', '4230 nM'),
  ('NLATSIYTI', '1.2 nM'),
  ('RLVDFFPDI', '0.14 nM'),
  ('IMLEGETKL', '6.7 nM'),
  ('QLLKILDNL', '441 nM'),
  ('MVTDKTAYI', '227 nM'),
  ('GVCYYLLMHL', '124 nM'),
  ('KLFTDNNFL', '2 nM'),
  ('ILRKIFYSV', '126 nM'),
  ('GMANTTFHV', '0.41 nM'),
  ('KLFFAKCLVV', '2.3 nM'),
  ('LQKFSFKIA', '4660 nM'),
  ('NTNQGNILM', '4580 nM'),
  ('DLNIFMTLV', '1120 nM'),
  ('YLVDVETIGV', '0.17 nM'),
  ('ILSLETVKM', '204 nM'),
  ('NLILNFLDWI', '4390 nM'),
  ('LIVLFEVFV', '1930 nM'),
  ('KLDDTGKKEL', '450 nM'),
  ('ELIAFSSGTV', '997 nM'),
  ('VILPDKIDGL', '1780 nM'),
  ('RVNVFETRI', '1960 nM'),
  ('TTFITVLTSV', '271 nM'),
  ('FIGYMVKNV', '443 nM'),
  ('AIIPLSASV', '14 nM'),
  ('TIDGRIVTL', '2170 nM'),
  ('LLEQLIENI', '1570 nM'),
  ('ITLVVISVI', '551 nM'),
  ('LLDEPLSPDT', '3600 nM'),
  ('FLARKGIDT', '1420 nM'),
  ('NLRCHSAHV', '3060 nM'),
  ('MMNERDVSV', '1.1 nM'),
  ('LLDLFGPEV', '6 nM'),
  ('ELAYYNSCM', '4370 nM'),
  ('FVARVFLGL', '19 nM'),
  ('FMIITSTKTI', '1480 nM'),
  ('CLTVPNITI', '1190 nM'),
  ('ITVGMLIYSM', '167 nM'),
  ('MLFVNDLMT', '747 nM'),
  ('YAAEMVEYL', '32 nM'),
  ('ETYHLIDYET', '3180 nM'),
  ('NLLSKNTFYL', '1.4 nM');
